# Test system: MS2 coat protein
# Assay name: apparent KD of MS2 coat protein; designed switch direction (-1 OFF switch, 1 ON switch): -1; higher = weaker reporter binding
# Test parameters: input ligand: microRNA oligo, concentration not stated
Known apparent KD of MS2 coat protein of a selection of sequences
Reply with just the number (in nM).

AGCGCCAUCGUGAGAUGGCGUAUUACAUGAGGAUCACCCAUGUAGGAUAUCGAUUGCUUUGCAGUCGAGAAGGACAUGUUCUUG [JL ENG3 3.80 Mod B] (Eterna round: R96, puzzle: Exclusion NG 3): 39.4

As a next step, examine the sequence that follows.
Query block: Which apparent KD of MS2 coat protein value is on record for AUAAAUCAUGUAGGAUAUGCGUGGCGAAGCUAUGCAGAAGGACAUGAGGAUCACCCAUGUCUUUCCGUCUGCGUACAGACGGAA [Mat - Exclusion NG 1 - Mod of JL - D41] (Eterna round: R96, puzzle: Exclusion NG 1) ?
Result block: 23.6

---

# Tested on: MS2 coat protein
# Assay name: apparent KD of MS2 coat protein; designed switch direction (-1 OFF switch, 1 ON switch): -1; higher = weaker reporter binding
# Test parameters: input ligand: FMN 200 uM
Note to self: values exactly at 400 nM are 1. So apparent KD of MS2 coat protein at or above 400 nM is 1, below is 0.

AAUAUUAGAGGAUAUGCACUUGCACUAACGAAAUCCUCACCACAUGAGGAUCACCCAUGUAGAAGGCUGGUGGU [Eternabot (L2) Solution 65] (Eterna round: R97, puzzle: Exclusion 2): 0
AAUAAUAAACAAGCUUUUUACAUGAGGAUCACCCAUGUCCUCUGCUCGUCUUAUCUUGGGCUUUUUUUGGGUUCGGG [-16.4, -45 kcal, A 21%] (Eterna round: R97, puzzle: Sensor, turn-off variant 1): 1

Query block: Hello, I need to know if AACAGUACAGGAUAUACAUGAGGAUCACCCAUGUGAGAAUUAAGUGGCGAACCACAAAGUAGAAGGGUACUGGA [Mat - Exclusion 3 - JL mod - D1] (Eterna round: R96, puzzle: Exclusion 3) has measured apparent KD of MS2 coat protein not below 400 nM. Thanks!
Result block: 0

Query block: Now try UUUGUGUAAGGAUAUGCGAGCCACGGAAAUAAAACGUGGAGGUAGAAGGUACAUGAGGAUCACCCAUGUAAAAC [Mod of Anonveat 21 - Jieux - Exclusion 4] (Eterna round: R97, puzzle: Exclusion 4) .
Result block: 0

Query block: Repeat with GCUGGUCAAGGAUAUACAUGAGGAUCACCCAUGUGGUCACGUGACGAUAGUCACGAAUGUAGAAGGUGACCAGC [E3/3-C1] (Eterna round: R97, puzzle: Exclusion 3)
Result block: 0

---

# Test system: MS2 coat protein
# Assay name: apparent KD of MS2 coat protein; designed switch direction (-1 OFF switch, 1 ON switch): 1; higher = weaker reporter binding
# Test parameters: input ligand: none
Observable: apparent KD of MS2 coat protein (nM)
Hi! Could you send only the number? It should be in nM, unit omitted.

Worked examples follow.
UGGCUCAGAGCAGGAUAUAUGUAAUAACAUGAGGAUCACCCAUGUGUCGAGCUUCGGCUCGACACAUAGAAGGGCUCUGAGCCA [SSNG2/2-B2] (Eterna round: R96, puzzle: Same State NG 2): 40.9
UGUUUGUUGUGAGGAUAUACAUACACCUUACAUGAGGAUCACCCAUGUUGUAAUUUUGAUAGUUAGUAGAAGGCACUUGGUUAU [JR_SSNG2_Sub045] (Eterna round: R96, puzzle: Same State NG 2): 71.5
CCAGGACAUGAGGAUCACCCAUGUGCUUAAUGUGGAGAAUCUCAGGAUAUCAUGAGGAUCACCCAUGAGAAGGGAGAUCCGAGG (Eterna round: R96, puzzle: Same State NG 3): 398
AGAAUGCACAUGAGGAUCACCCAUGUACCCGGCUGGCAUUUGCAGGAUAUGCCGCGGCGAGCCCAGCAGAAGGGCAAGUGCUAA [Eternabot solution 4] (Eterna round: R96, puzzle: Same State NG 3): 26.9

Now for another entry.
Query block: Form field: reported apparent KD of MS2 coat protein of CCAUAACAGUGAGGAUAUUGUUGCGAUAAGUGACGAGAAGGCAUUUAUGUGAAAUAAACAUACAUGAGGAUCACCCAUGUUGUA [Omei SS(NG)1 Bv4] (Eterna round: R96, puzzle: Same State NG 1)
Result block: 22.3

---

# Tested on: MS2 coat protein
# Assay name: apparent KD of MS2 coat protein; designed switch direction (-1 OFF switch, 1 ON switch): 1; higher = weaker reporter binding
# Test parameters: input ligand: microRNA oligo, concentration not stated
Observable: apparent KD of MS2 coat protein
# output: numeric value plus its unit

GUUACAUGAGGAUCACCCAUGUAUGUGUGGGAGUAAGUGUCUUAGGAUAUCUAUCAUUAAAUUUAAGAGAAGGAAGAUUGUUGU [JMF's solution 91] (Eterna round: R96, puzzle: Same State NG 3): 84.7 nM
GCUCGAUGAAAGUCCUACAUGAGGAUCACCCAUGUACGUGGGCAGGAUAUCUACAUGCAGAAUGUAGAGAAGGGCCCAUCGAGC [SameState NG3 #59] (Eterna round: R96, puzzle: Same State NG 3): 15.1 nM

Let's switch to this sequence now.
Query block: Any idea what apparent KD of MS2 coat protein was measured for GUGGUCAGACAUGAGGAUCACCCAUGUGGAAUAAAUAACACACAGGAUAUCUAAUAUAAAAUAUAAGAGAAGGGUGGAUUGGUG (Eterna round: R96, puzzle: Same State NG 3) ?
Result block: 202 nM

---

# System: K4 kissing-loop RNA reporter;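 also: bound reporter read as fluorescence of individual clusters on recovered sequencing chips by microscopy, with normalized cluster intensities fitted with a binding model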
# Assay name: apparent KD of K4 kissing-loop reporter; higher = weaker reporter binding
# Test parameters: Eterna round: R107; input ligand: tryptophan 2.4 mM
Please note: true applies when apparent KD of K4 kissing-loop reporter is 300 nM or greater, and false applies otherwise.

Previously resolved entries follow.
GGAAGACACCUGAGUGAUGUUCGGGUGUGCCGAGGACCGGUACGGCCGCCACUCGGGUGGUACAGUUACUGAUUGGACCGCUAUC [Arbirace]: false
UCGAGUUGACGAAAAGUCAACUCGUGAGAUACCAGUGACGAAAGUCACCCUUGGCAGCUCACUGCCAGUGAUGUUGGUGUAUAGA [#06 K4 Theophylline A Same State]: true
UAAGAAUAAGUAGCAGUGAUGUUGCUACUACGAGGACCGGUACGGCCGCCACUCGAGUCCUCGAAACAUCACUGAACGAGGAAUA [(H,1)-(H,2)-(Trp1)-(Trp2)-(T)'-(H)'-(T)'']: true
GAUAUAGUGAUGUUAUAUACUGAUAGACAACGAGGACCGGUACGGCCGCCACUCGAGAGGGUGAAAAUAAUGAUAAAAUAAUAAU [ExyTryA#1]: false

Read the next record carefully.
Query block: Textbook exercise: given the entry UGUUUUUACUGAAGGAGCGGCAAUUGAUACGUAGAUAUAGUGAUGUUAUAUAAGAUAGAGAGCCAGGUAGGUCGCAGAGUGUAUC [ExArgB.aB] , state whether its apparent KD of K4 kissing-loop reporter is greater than or equal to 300 nM.
Result block: false

---

# System: MS2 coat protein
# Assay name: apparent KD of MS2 coat protein; higher = weaker reporter binding
# Test parameters: Eterna round: R107; input ligand: tryptophan 2.4 mM
Classes (apparent KD of MS2 coat protein): range 1 (below 20 nM), range 2 (20 nM to below 200 nM), range 3 (200 nM or more)

Please review the following examples before continuing.
GUACAUGAGGAUCACCCAUGUAUAGUUGAAGGAGCGACCGGUGGGUCAGGUAGGUCGCAGCGCAUGGCGUCCACGCGUGUAUGCC [#1 Exclusion - Arginine A Attempt #29 (Inspired by Pi)]: range 1
UAUAUAUAUAGGGAUACCAGCAGAGAAAACGUUUAUCCUAACAUGAGGAUCACCCAUGUAUGCCCUUGGCAGCUUUAUAUAUAUA [8.F]: range 2

Let's switch to this sequence now.
Query block: Record UUUGAAAUAACAGAUACCAGCGUGUUAUAAAACAUGAGGAUCACCCAUGUAGUGAUCAAGCGCCCUUGGCAGCUGGUAUUUUAGG [7.F] — which class?
Result block: range 2

---

# Test system: MS2 coat protein
# Assay name: apparent KD of MS2 coat protein; designed switch direction (-1 OFF switch, 1 ON switch): -1; higher = weaker reporter binding
# Test parameters: Eterna round: R95; input ligand: FMN 200 uM
Kindly return YES if reported apparent KD of MS2 coat protein is no lower than 50 nM; return NO if it is lower.

Look over these answered cases.
UAGAGACAUGAGGAUCACCCAUGUGAGGAUAUAGAGAAAGAUUGCGAGAGGGAGAGGACUAGAAGGCACAGUGA [JR_Exclu1_Sub033] (puzzle: Exclusion 1): NO
GGUUGACAUGAGGAUCACCCAUGUGAGGAUAUGCGAGAGAAAAAAGUGAGGAAGAGAAGCAGAAGGCGCUGUCG [salish99-ex1_r3_014] (puzzle: Exclusion 1): YES
CGUGACUGAGGAUAUCUAUAAUAUCACAUGAGGAUCACCCAUGUCCAGCGAAAGCUGGAGGGAGAAGGCAGUCACG [Fiskers Ex 5 - 29] (puzzle: Exclusion 5): YES
ACCCAACAUGAGGAUCACCCAUGUCAGGAUAUCCAUCACUAUCACGAAAGGAUAGGAUGGAGAAGGGACAGAGG [ChP 04-04-2015 #3] (puzzle: Exclusion 1): YES
CAUGGAUGUGAGCCGCAUUACAUGAGGAUCACCCAUGUCAACAAGCUUUUUGCUUGUCUUACGCGGCGGCAUCAAAA [Geonso] (puzzle: Sensor v3, turn-off variant 1): NO
GGUUGGCGAGGAUAUACAUGAGGAUCACCCAUGUGAGAGAUACUAGUGAGGUCGAUUGGUAGAAGGCGCUGACG [JL-ex3-2.02 salish99 mod] (puzzle: Exclusion 3): YES
UGGUAACAUGAGGAUCACCCAUGUCAGGAUAUCAGUAAGAAGAGAGGAGAGUAGAAGAUGAGAAGGGACUAUAU [Excluse me! 9 - Jieux - Exclusion 1] (puzzle: Exclusion 1): NO
UUAUACGGUGAGGAUAUCUCCACUAAAGUGUGAAGAGAAGGCGCUACAUGAGGAUCACCCAUGUCUAUGGGCAG [Ex-6 Malc#16] (puzzle: Exclusion 6): YES

Query block: Is the recorded value of apparent KD of MS2 coat protein equal to or greater than 50 nM for this sequence? UUUAAUUUUUUUUUUUUACAAGCUUUUUGCUCGUCUUAUACAUGAGGAUCACCCAUGUAGGUGAGAGAUAAAUUAUC [JMF 15] (puzzle: Sensor v3, turn-off variant 2)
Result block: NO

Query block: Next up: CCAUCCAGUGUGAGGAUAUGCUGGUCCUUGGAUCAGCAGAAGGCACAUGAGGAUCACCCAUGUGAAUAGGAUGG [Mat - Exclusion 4 - JL Mod - D85] (puzzle: Brourd's mod of Exclusion 4)
Result block: YES

Query block: Another sequence: CAGUACUGAGGAUAUACAUGAGGAUCACCCAUGUGUUCCAGCUGGGAAACUAGCAAAAGUAGAAGGCAGUACUG [salish99_ex3_r3_076] (puzzle: Exclusion 3)
Result block: YES

Query block: And then GGUUGGCGAGGAUAUACAUGAGGAUCACCCAUGUGAGAGAUAAAAGUGAGGAAGAAAAGUAGAAGGCGCUGACG [salish99_ex3_r3_012] (puzzle: Exclusion 3) , what is it?
Result block: YES

Query block: Same read-out for UUUAAUUUUUUUUUUUUACAAGCUUUUUGCUCGUCUUAUACAUGAGGAUCACCCAUGUAAAUGGAAGGUAAAUUAUC [JMF 67] (puzzle: Sensor v3, turn-off variant 2) ?
Result block: NO
